Below, each of the compounds is paired with its reported viability at 24 h, 10 μg/mL value.
Test: Cytotoxicity, LDH assay, A375 cells
Type: cell-based, human
Conditions: human, A375 malignant melanoma cells; 10 μg/mL, 24 h, mean ± SD of three; read-out: Cell viability A375

# compound, viability at 24 h, 10 μg/mL / %
records = [
    ("CC(=O)OC1CC2(C)C(C(OC(C)=O)CC3(C)C2C(O)C=C2C4C(C)C(C)(O)CC(OC(C)=O)C4(C)CCC23C)C(C)(C)C1O (centres unmarked)", 95.3),
    ("CCC(C)C(=O)OC1C=C2C3C(C)C(C)(O)CC(OC(C)=O)C3(C)CCC2(C)C2(C)CC(OC(C)=O)C3C(C)(C)C(O)C(OC(C)=O)CC3(C)C12 (centres unmarked)", 96.4),
]
